measured_on: Estrogen receptor (Homo sapiens)
assay_comment: NVS_NR_hER: NovaScreen (NVS) Nuclear Receptor Binding Assay for human Estrogen Receptor (ER) (AID 2283348)
Records with an inconclusive call do not appear. The source made the active and inactive calls. The calls were made as follows: active = hit-call score of the fitted dose curve at least 0.9, where 1 is the maximum; inconclusive = response in the unintended direction; inactive = score below 0.9.
Could you please pick one outcome from this set? 1 (active), 0 (inactive)

Ask: Please state the recorded outcome for this compound: O=C(O)c1ccccc1Nc1cccc(C(F)(F)F)c1
Result: 0

Ask: Here is the next compound: NC(CO)(CO)CO
Result: 0

Ask: Here is the next compound: O=C(O)CCCC[C@@H]1SC[C@@H]2NC(=O)N[C@@H]21
Result: 0

Ask: Here is the next compound: O=C(Nc1ccccc1SSc1ccccc1NC(=O)c1ccccc1)c1ccccc1
Result: 0

Ask: Here is the next compound: OC1CCCC1
Result: 0

Ask: Here is the next compound: S=C(NC1CCCCC1)NC1CCCCC1
Result: 0

Ask: Here is the next compound: CCOC(=O)N1CCC(=C2c3ccc(Cl)cc3CCc3cccnc32)CC1
Result: 1

Ask: Here is the next compound: CC(=O)NS(=O)(=O)c1ccc(N)cc1
Result: 0

Ask: Here is the next compound: COC(=O)C1=C(C)NC(C)=C(C(=O)OCC(C)C)C1c1ccccc1[N+](=O)[O-] (stereo not drawn)
Result: 0

Ask: Here is the next compound: Nc1ccc2cc3ccccc3cc2c1
Result: 0

Ask: Here is the next compound: Oc1ccc(Cl)cc1Cc1cc(Cl)ccc1O
Result: 1

Ask: Here is the next compound: C/C=C\C/C=C/CCCCCCCCOC(C)=O
Result: 0

Ask: Here is the next compound: CC(=O)OC(C)C
Result: 0
